test system: L. donovani; assay: In vivo visceral leishmaniasis BALB/c mouse model: liver and spleen parasite burden (LDUs); design: species or system BALB/c mice; conditions: 20 mg/kg total dose; 14 days post infection; n=2
Field: LDUs (Spleen). Provide a value for each of the compounds that follow.
One number for each entry, in LDUs.

Consider the following illustrative entries.
NC1=C(Br)C(=O)c2ccccc2C1=O
297.8
O=C1C(Cl)=C(N(C(=O)c2cccc(Cl)c2)C(=O)c2cccc(Cl)c2)C(=O)c2ccccc21
770.0
CCCC(=O)N(C(=O)CCC)C1=C(Cl)C(=O)c2ccccc2C1=O
363.3

# context switch: different compound, same LDUs (Spleen)
Q. May I ask what LDUs (Spleen) has been recorded for C[C@@H]1[C@H](O)[C@@H](C)/C=C/C=C/C=C/C=C/C=C/C=C/C=C/[C@H](O[C@@H]2O[C@H](C)[C@@H](O)[C@H](N)[C@@H]2O)C[C@@H]2O[C@](O)(C[C@@H](O)C[C@@H](O)[C@H](O)CC[C@@H](O)C[C@@H](O)CC(=O)O[C@H]1C)C[C@H](O)[C@H]2C(=O)O [Am. B., Amphotericin B, reference compound] ?
A. 402.3
